run conditions: siRNA; further: test system not given here
HELM strings list units from the 5' end as sugar, base in round brackets, then linkage (d deoxyribose, r ribose, m 2'-O-methyl, p phosphodiester). Strings are as the collection lists them, not checked against the first reports. ss, as = sense and antisense strand; [lna] = locked nucleic acid (LNA); [hna] = hexitol nucleic acid
Threshold 70%: target mRNA knockdown strictly smaller gives Met, otherwise Not met.

Answered examples (2):
RNA1{r(G)p.r(A)p.r(C)p.r(G)p.[hna](U)p.r(A)p.r(A)p.[hna](A)p.r(C)p.r(G)p.[hna](G)p.r(C)p.r(C)p.[hna](A)p.r(C)p.r(A)p.r(A)p.r(G)p.[hna](U)p.r(U)p.d(T)}|RNA2{r(A)p.r(C)p.r(U)p.r(U)p.r(G)p.r(U)p.r(G)p.r(G)p.r(C)p.r(C)p.r(G)p.r(U)p.r(U)p.r(U)p.r(A)p.r(C)p.r(G)p.r(U)p.[lna](C)p.[lna](G)p.r(C)}$$$RNA1{StrandType:ss}|RNA2{StrandType:as}$    Not met
RNA1{r(A)p.r(G)p.r(A)p.r(G)p.r(G)p.r(A)p.r(C)p.r(C)p.r(U)p.m(A)p.r(G)p.r(A)p.r(A)p.r(G)p.r(G)p.r(C)p.r(G)p.r(G)p.r(C)p.r(T)p.r(T)}|RNA2{r(G)p.r(C)p.r(C)p.r(G)p.r(C)p.r(C)p.r(U)p.r(U)p.r(C)p.r(U)p.r(A)p.r(G)p.r(G)p.r(U)p.r(C)p.r(C)p.r(U)p.r(C)p.r(U)p.r(T)p.r(T)}$$$RNA1{StrandType:ss}|RNA2{StrandType:as}$    Not met

Now, please, on to the next substance.
Prompt line: Consider RNA1{m(A)p.r(A)p.m(A)p.r(G)p.m(C)p.r(G)p.m(G)p.r(U)p.m(G)p.r(G)p.m(A)p.r(U)p.m(C)p.r(A)p.m(G)p.r(C)p.m(U)p.r(C)p.m(U)p.r(T)p.r(T)}|RNA2{r(A)p.m(G)p.r(A)p.m(G)p.r(C)p.r(U)p.r(G)p.r(A)p.r(U)p.r(C)p.r(C)p.r(A)p.r(C)p.r(C)p.m(G)p.r(C)p.r(U)p.r(U)p.r(U)p.r(T)p.r(T)}$$$RNA1{StrandType:ss}|RNA2{StrandType:as}$ . Does its target mRNA knockdown lie strictly below 70%?
Response line: Met
